Reported values of melting point for individual entries

See these solved cases before continuing.
>>> observed("COc1cc2c(cc1S(C)(=O)=O)nc(C)n2C(C)C")
"161 to 165 °C"
>>> observed("O=C(O)C1C(C=C(Cl)Cl)C12CCCC2 (stereo unspecified)")
"90 to 105 °C"
>>> observed("CCN(c1nc(C)cc(-c2ccccc2C(F)(F)F)n1)c1ccc(C(C)C)cc1Br")
"101 to 102 °C"

[ask] In one line, give reported melting point of the entry O=S(=O)(c1ccccc1)N1CCC(Nc2nc(OCC(F)(F)F)nc(-n3ccnc3)n2)CC1 .
[reply] 201 to 203 °C

[ask] In one line, give reported melting point of the entry COc1cc(C(=O)O)cc(OC)c1Cl .
[reply] 102 to 103 °C

[ask] In one line, give reported melting point of the entry O=C(NC(=O)c1ccc2ncccc2c1)NC1CCN(Cc2ccc3ccccc3c2)CC1 .
[reply] 211 to 213 °C

====

Reported values of melting point for individual entries

>>> observed("Cc1nc2ccccn2c(=O)c1CCN1CCN(c2cccc(Cl)c2)CC1")
"112 to 113 °C"

[ask] In one line, give reported melting point of the entry COc1cc(S(C)=O)c(C)cc1OCC(=O)NCC(O)COc1ccccc1C (stereo unspecified) .
[reply] 106 to 108 °C

[ask] In one line, give reported melting point of the entry O=C(CC12CC3CC(CC(C3)C1)C2)Nc1c(Cl)ccc2ncccc12 .
[reply] 219 to 220 °C

[ask] In one line, give reported melting point of the entry CCN(CC)CCOc1ccc2c3c(cccc13)C(=O)c1c-2oc2ccccc12 .
[reply] 115 to 118 °C

[ask] In one line, give reported melting point of the entry COc1cc(C=O)ccc1OCc1nc(-c2ccccc2)sc1C .
[reply] 133 to 134 °C

[ask] In one line, give reported melting point of the entry COC(=O)c1ncoc1C(C)C .
[reply] 49 to 50 °C

[ask] In one line, give reported melting point of the entry COC(=O)CC1C(=O)Nc2cc(S(N)(=O)=O)sc2S1(=O)=O (stereo unspecified) .
[reply] 223 to 225 °C

[ask] In one line, give reported melting point of the entry O=C(Nc1cccc(-c2ccnc3c(C(=O)c4cccs4)cnn23)c1)c1c(F)cccc1F .
[reply] 159 to 160 °C

[ask] In one line, give reported melting point of the entry NC(=O)OC(CC(=NNC(N)=S)c1ccccc1)c1ccccc1 (stereo unspecified) .
[reply] 149 to 150 °C

====

Endpoint label: melting point

See these solved cases before continuing.
>>> observed("COc1cc(SC)ccc1C(=O)c1cnoc1C1CC1")
"108 °C"
>>> observed("CC(NC(=O)c1ccc(N)cc1)C(=O)O (stereo not given)")
"198 to 199 °C"
>>> observed("COc1ccc(CC(=O)O)c(C(=O)O)c1")
"175 to 177 °C"
>>> observed("O=CN(Cc1cccc2ccccc12)c1cccc(NC(=O)c2cc(Cl)cc(Cl)c2)c1")
"205 to 208 °C"

Please turn your attention to the following entry.
[ask] In one line, give reported melting point of the entry CCn1c(=O)cc(C2CCCCC2)c2cccnc21 .
[reply] 88 to 89 °C

====

Reported values of melting point for individual entries

See these solved cases before continuing.
>>> observed("COc1ccc(C(=O)c2cccc(C(F)(F)F)c2F)c(OC)c1")
"79 to 82 °C"
>>> observed("Cc1ccc(C2(CNC(=O)Nc3c(C(C)C)cccc3C(C)C)CCC2)cc1")
"166 to 168 °C"
>>> observed("CCC1=Nc2ccc(S(C)(=O)=O)cc2C(=O)C1")
"283 °C"
>>> observed("COc1ccc(CN2C(=O)[C@H](NC(=O)OC(C)(C)C)[C@@H]2/C=C/C(N)=O)c(OC)c1")
"270 °C"
>>> observed("COc1ccc(NC(=O)C(F)(F)F)cc1C12CC3CC(CC(C3)C1)C2")
"166 to 167 °C"

[ask] In one line, give reported melting point of the entry Fc1cccc(F)c1-c1nc2ccccc2n1Cc1ccccc1 .
[reply] 124 °C

[ask] In one line, give reported melting point of the entry COC(=O)NC(=NS(=O)(=O)NC1CCCCC1)OC .
[reply] 84 to 86 °C

[ask] In one line, give reported melting point of the entry CC(C)NC(=O)Nc1cc(C(C)(C)C)on1 .
[reply] 135 to 138 °C

[ask] In one line, give reported melting point of the entry Cc1nnc(F)c(-c2c(F)cc(F)cc2F)c1-c1ccc2ccccc2c1 .
[reply] 108 to 110 °C

====

Endpoint label: melting point

>>> observed("CC(=O)NNc1ccnc2c(NC(=O)c3c(Cl)cccc3Cl)cc(C)c(C)c12")
"> 250 °C"
>>> observed("O=C(CSCc1ccc(F)cc1)NO")
"115 to 116 °C"
>>> observed("CC(C)C(/C=C/C(=O)O)=C(c1ccc(F)cc1)c1ccc(F)cc1")
"225 to 230 °C"
>>> observed("CCOCc1nc2c(N)nc(C)c(C)c2n1CC(C)(C)O")
"190 to 193 °C"

[ask] In one line, give reported melting point of the entry O=c1c2cc(F)c(F)cc2nc(C(S)c2ncnc3[nH]cnc23)n1-c1ccccc1Cl (stereo unspecified) .
[reply] 208 °C

[ask] In one line, give reported melting point of the entry Fc1ccc(Nc2ncnc3cnc(NC4CCNCC4)nc23)cc1Cl .
[reply] 239 to 243 °C

[ask] In one line, give reported melting point of the entry CCOC(=O)NC(=O)n1sc(OCC)nc1=O .
[reply] 119 °C

====

Endpoint label: melting point

>>> observed("COc1cc(C)nc(NC(=O)NS(=O)(=O)c2cccc3c2OS(=O)(=O)C(C)C3)n1 (stereo not given)")
"215 to 218 °C"
>>> observed("CC(C)(C)C(=O)c1occc1C(=O)O")
"85 to 89 °C"
>>> observed("CC(Oc1ccc2nc(-c3ccccc3OC(N)=O)sc2c1)c1ccccc1C(F)(F)F (stereo not given)")
"200 to 205 °C"
>>> observed("CC(C)(C)c1cc(C=C(C#N)c2ccccn2)cc(C(C)(C)C)c1")
"90 to 93 °C"

[ask] In one line, give reported melting point of the entry Cc1cc(S(F)(F)(F)(F)F)ccc1C(=O)O .
[reply] 138 to 139 °C

====

Reported values of melting point for individual entries

See these solved cases before continuing.
>>> observed("CC(=O)c1coc2cc(NS(C)(=O)=O)c(Oc3ccccc3)cc2c1=O")
"175 to 177 °C"
>>> observed("S=C=Nc1ccc2oc(-c3ccc(CN4CCOCC4)s3)nc2c1")
"135 to 138 °C"
>>> observed("CSc1ccc2ncc([N+](=O)[O-])c(-c3ccccc3)c2c1")
"131 to 133 °C"

[ask] In one line, give reported melting point of the entry CC(Oc1cccc(C(=O)NCCN(O)C(N)=O)c1)c1ccccc1 (stereo not given) .
[reply] 164 to 165 °C

[ask] In one line, give reported melting point of the entry CC(=O)Oc1cc2c(s1)C(N1CCCC1=O)CC(C)(C)O2 (stereo not given) .
[reply] 92 to 93 °C

====

Endpoint label: melting point

>>> observed("CCn1c(N)c(-c2nccn2COCC[Si](C)(C)C)c(=O)c2ccc(Cl)nc21")
"90 °C"
>>> observed("CCOC(=O)C(Cc1ccccc1)N(CC)C(=O)OC(C)(C)C (stereo not drawn)")
"58 to 61.5 °C"

[ask] In one line, give reported melting point of the entry CSC(CC(=O)O)c1ccc(C(F)(F)F)cc1 (stereo not drawn) .
[reply] 106 to 108 °C

====

Reported values of melting point for individual entries

See these solved cases before continuing.
>>> observed("O=C(O)CCCOc1ccc(C23CC4CC(CC(C4)C2)C3)cc1")
"170 to 172 °C"
>>> observed("N#Cc1cnn2c1N(C(=O)CCl)CC=C2c1cc(Cl)ccc1Cl")
"235 to 236 °C"
>>> observed("Cc1cc(Nc2ccc(C(=O)O)cc2)c2[nH]ncc2n1")
"238 to 241 °C"
>>> observed("Cc1ccc2nc(N3CCNCC3)c(=O)n(-c3ccccc3)c2c1")
"166 to 168 °C"
>>> observed("C#CCN1CCN(CC(=O)N2c3ccccc3C(=O)Nc3cccnc32)CC1")
"249 to 250 °C"

[ask] In one line, give reported melting point of the entry O=c1nc(-c2ccccn2)sc2ncccc12 .
[reply] 235 °C

[ask] In one line, give reported melting point of the entry CCOC(=O)c1sc(C2=C(C)NC(C)=C(C(=O)OC)C2c2ccccc2[N+](=O)[O-])nc1C (centres undefined) .
[reply] 191 to 192 °C

[ask] In one line, give reported melting point of the entry COc1ccc(C(=O)O)c(C)c1OC .
[reply] 179 to 180 °C

[ask] In one line, give reported melting point of the entry CCOC(=O)C1=CC(C(=O)c2cc(Cl)ccc2O)=CN2CCc3c([nH]c4ccc(OC)cc34)C12C(=O)OCC (centres undefined) .
[reply] 230 °C
